System: Botrytis Cinerea
Assay: Botrytis cinerea / tomato / preventive
Format: in vivo
Settings: 72 h, preventive spray, tomato plants cv. Roter Gnom, assessed 3 days after inoculation, read-out: inhibit fungal infestation
RECORDED_METRIC: inhibition at 200 ppm

Data request: What does the record list as inhibition at 200 ppm for Cc1nnc(Cl)c(-c2c(F)cc(F)cc2F)c1-c1ccc2ccccc2c1 [I.ae.198] ?
Data returned: ≥ 80%

Data request: Queued: COc1nnc(C)c(-c2ccc3ccccc3c2)c1-c1c(F)cccc1Cl [I.ae.079]
Data returned: ≥ 80%

Data request: Queued: COc1nnc(C)c(-c2ccc3ccccc3c2)c1-c1c(F)cc(F)cc1F [I.ae.199]
Data returned: ≥ 80%

Data request: Queued: Cc1nnc(F)c(-c2c(F)cc(F)cc2F)c1-c1ccc2ccccc2c1 [I.ae.197]
Data returned: ≥ 80%
